Give measured IC50 for each item. Keep answers brief.
# Tested on: Mouse melanoma B-16
# MEASUREMENT PROTOCOL: Inhibitory activity on proliferation of cancer cells
# Format: cell-based
# CONDITION INFO: B16
Numbers only, in µg/mL.

Worked cases, answers included:
CCC(O)C(C)/C=C/C=C/C(O)CC1C=CC2CC(C)CC(C)C2C1(C)C(=O)C1C(=O)NC(O)C1=O (centres unmarked) [Delaminomycin A]	21.1
CCC(O)C(C)/C=C/C=C/C(O)CC1C=CC2CC(C)CC(C)C2C1(C)C(=O)C1C(=O)CNC1=O (centres unmarked) [Delaminomycin C]	7.4

// each listed compound needs a value for IC50
1. CCC(O)C(C)/C=C/C=C/C1CC2C=CC3CC(C)CC(C)C3C2(C)C(=O)C12C(=O)NC(OC)C2=O (centres unmarked) [Delaminomycin B2]
2. CCC(O)C(C)/C=C/C=C/C1CC2C=CC3CC(C)CC(C)C3C2(C)C(=O)C12C(=O)NC(O)C2=O (centres unmarked) [Delaminomycin A2]

1: 17.9; 2: 8.3

* * *

# Tested on: nylon wool-passed cells of spleen cells (responder cell; T cells)
# MEASUREMENT PROTOCOL: Inhibitory activity to the mixed lymphocyte culture reaction
# Assay type: cell-based, rat (Fischer F344 responder; WKY stimulator)
# CONDITION INFO: Rattus norvegicus, T-cell; 120 hours, 3H-thymidine incorporation; read-out: IC50 (inhibition of mixed lymphocyte culture reaction)
IC50 less than 10 µg/mL is Criterion met; IC50 greater than or equal to 10 µg/mL is Criterion not met.

I wonder whether CCC(O)C(C)/C=C/C=C/C1CC2C=CC3CC(C)CC(C)C3C2(C)C(=O)C12C(=O)CNC2=O (stereo not drawn) has IC50 below 10 µg/mL. Can you tell?
Criterion not met

I wonder whether CCC(O)C(C)/C=C/C=C/C(O)CC1C=CC2CC(C)CC(C)C2C1(C)C(=O)C1C(=O)CNC1=O (stereo not drawn) has IC50 below 10 µg/mL. Can you tell?
Criterion met

I wonder whether CCC(O)C(C)/C=C/C=C/C(O)CC1C=CC2CC(C)CC(C)C2C1(C)C(=O)C1C(=O)NC(OC)C1=O (stereo not drawn) has IC50 below 10 µg/mL. Can you tell?
Criterion met

I wonder whether CCC(O)C(C)/C=C/C=C/C1CC2C=CC3CC(C)CC(C)C3C2(C)C(=O)C12C(=O)NC(OC)C2=O (stereo not drawn) has IC50 below 10 µg/mL. Can you tell?
Criterion met

I wonder whether CCC(O)C(C)/C=C/C=C/C(O)CC1C=CC2CC(C)CC(C)C2C1(C)C(=O)C1C(=O)NC(O)C1=O (stereo not drawn) has IC50 below 10 µg/mL. Can you tell?
Criterion met

I wonder whether CCC(O)C(C)/C=C/C=C/C1CC2C=CC3CC(C)CC(C)C3C2(C)C(=O)C12C(=O)NC(O)C2=O (stereo not drawn) has IC50 below 10 µg/mL. Can you tell?
Criterion not met
